Item-by-item account of TGI
Test system: EKVX NSCLC
Experiment: NCI tumour cell line growth inhibition, 48 h
Report only the number, with the unit µM understood.

Below, each entry is followed by its recorded TGI result.
Cc1cn2c(/C=N/N=C(N)N)c(-c3ccc(Cl)c([N+](=O)[O-])c3)nc2s1
2.1
NC(=O)CNc1ccc([As]=[As]c2ccc(NCC(N)=O)cc2)cc1 (configuration not stated)
90.9
Cc1cc(NCCCCNc2ccnc3cc(Cl)ccc23)nc(Nc2ccc(C(=O)N3CCCCC3)cc2)n1
10.8
COc1ccc(/C=N/N=C(\N)NO)c(OC)c1C
41.9
CCOC(=O)C(NC(=O)c1ccccc1)(N1CCN(c2cc3c(cc2F)c(=O)c(C(=O)O)cn3C2CC2)CC1)C(F)(F)F (configuration not stated)
67.1

Now for a further compound.
Q. Need TGI, item `O=C(Cn1c2ccc(Br)cc2c2nc3ccccc3nc21)NNC(=S)NC1CCCCC1`
A. 43.1

* * *

System: RXF 393 renal
Assay: NCI tumour cell line growth inhibition, 48 h
quantity: TGI

Below, each entry is followed by its recorded TGI result.
O=C1C2[C@@H](C(=O)N1c1ccc(Br)cc1)C13C(=CC2([N+](=O)[O-])[C@@H]2C(=O)N(c4ccc(Br)cc4)C(=O)[C@@H]21)c1ccccc1N3c1ccccc1 (some centres undefined)
> 100 µM
CC(=O)O[C@]12CCCCCC1C1(O)C(O)CCCCC12 (some centres undefined)
> 100 µM
O=c1[nH]c2nc3ccccc3c(=O)n2/c1=C/c1cccs1
> 100 µM
CCCCC1Cc2cc(O)ccc2-c2nc3cc(O)ccc3n21 (centres undefined) (tested in a mixture with another compound)
35.6 µM
N#Cc1c(-c2ccco2)cc(-c2ccc(N)cc2)[nH]c1=O
> 100 µM

Q. Need TGI, item `O=C1CCSCCC(=O)Nc2ccccc2N1`
A. > 100 µM

Q. Need TGI, item `N/C(=N\S(=O)(=O)c1ccc(-c2ncccc2C(F)(F)F)s1)Nc1ccc(Cl)cc1`
A. 41.5 µM

Q. Need TGI, item `CCCn1cnc2c(SCc3ccc(Cl)cc3)nc(N)nc21`
A. > 100 µM

* * *

Test system: OVCAR-8 ovarian
Test: NCI tumour cell line growth inhibition, 48 h
Item-by-item account of TGI

NCCN.O=C([O-])[O-].O=C([O-])[O-].[Co+3].[K+]
> 100 µM
OC(C/C=N/N=C/CC(O)(C(F)(F)Cl)C(F)(F)Cl)(C(F)(F)Cl)C(F)(F)Cl
> 10 µM
CCC(=O)OCN(C)c1nc(N(C)COC(=O)CC)nc(N(C)COC(=O)CC)n1
> 100 µM
C/C=C\C(CC(=O)NCC(=O)c1c[nH]c2ccccc12)CC(=O)OC (centres undefined)
> 100 µM
CCC[CH2][Sn]1([CH2]CCC)[O]CC(COc2c(Cl)cc(Cl)cc2Cl)[O]1 (centres undefined)
2.37 µM
CC(=O)O[C@@]12CO[C@@H]1CC(O)[C@@]1(C)C(=O)[C@H](O)C3=C(C)C(O)C[C@@](O)(C(OC(=O)c4ccccc4)C12)C3(C)C (some centres undefined)
> 74.9 µM
C=CCC1(C)CCCCC1(O)CS(=O)c1ccccc1 (centres undefined)
> 100 µM
O=c1[nH]nc(Cc2ccc(Cl)cc2)n1/N=C/c1cccs1
> 100 µM

Q. Need TGI, item `CC1(C)N=C(N)N=C(N)N1c1cccc(OCCOc2cccc([N+](=O)[O-])c2)c1`
A. > 100 µM

* * *

System: COLO 205 colon
Assay: NCI tumour cell line growth inhibition, 48 h
Item-by-item account of TGI

Below, each entry is followed by its recorded TGI result.
O=Cc1ccc(-c2ccc(-c3ccc(CO)s3)o2)s1
> 85.7 µM
CCCCCCCCCCCCCCCCCCC1=C(O)C(=O)C=C(OC)C1=O
> 100 µM

Q. Need TGI, item `Cn1nnnc1SC(F)(F)c1nc2ccccc2o1`
A. > 100 µM

Q. Need TGI, item `Nc1c(S(=O)(=O)c2ccccc2)c2nc3ccccc3nc2n2c1nc1ccccc12`
A. > 100 µM

Q. Need TGI, item `CC(=O)OCCOCNC(=S)N/N=C/c1ccc([N+](=O)[O-])s1`
A. 4.61 µM

* * *

Tested on: DU-145 prostate
Assay: NCI tumour cell line growth inhibition, 48 h; in the data active = GI50 below about 0.43 µM; inactive = the rest
Choose the fitting class; nothing outside true for active, false for inactive is accepted.

Example cases with answers are listed next.
CNCCn1c(=O)c2cc(OC)c(OC)cc2c2cnc3cc4c(cc3c21)OCO4
true
CNC(C)[C@H]1CCC2C3CC=C4C(=O)[C@@H](NC(=O)C=C(C)C)CC[C@]4(C)C3CC[C@@]21C (some centres undefined)
false
O=C(CCN1CCOCC1)Nc1cccc(-n2cc(-c3ccncc3)c(-c3ccc(Cl)c(O)c3)n2)c1
false

Q. // outcome(item) with item = `COc1ccc2c(c1)c(-c1nc(-c3c[nH]c4ncccc34)cs1)cn2CCCCN1CCCCC1`
A. false

Q. // outcome(item) with item = `N#CC(C#N)=C1CCCOc2c1ccc1ccccc21`
A. false

Q. // outcome(item) with item = COc1cc(/C=C/C(=O)C(C(=O)/C=C/c2ccc(OC(=O)CCNC34CC5CC(CC(C5)C3)C4)c(OC)c2)C(=O)CCNC23CC4CC(CC(C4)C2)C3)ccc1OC(=O)CCNC12CC3CC(CC(C3)C1)C2 (centres undefined)
A. false

Q. // outcome(item) with item = `COc1cc2c3c(n(CCCN(CCO)CCO)c(=O)c2cc1OC)-c1cc2c(cc1C3=O)OCO2`
A. true

Q. // outcome(item) with item = `CCOC(=O)c1sc(NC(=O)COc2cccc(/C=C3\CCc4cc(OC)ccc4C3=O)c2)nc1C`
A. false

Q. // outcome(item) with item = `COc1cc(C(=O)O[C@H](C(N)=O)[C@]2(C)CO2)c2cccc(C)c2c1`
A. true

* * *

Item-by-item account of TGI
Tested on: OVCAR-4 ovarian
Experiment: NCI tumour cell line growth inhibition, 48 h

Below, each entry is followed by its recorded TGI result.
CCCn1cnc2c(SCc3ccc(Cl)cc3)nc(N)nc21
> 100 µM
Cc1ccc(C)c(N2C(=O)C(=O)C(c3nc4ccccc4o3)/C(=N/N)C2=O)c1 (centres undefined)
> 100 µM
O=C1c2ccccc2C(=O)c2c(NCCN=Cc3ccccc3O)cccc21
> 22.9 µM

Q. Need TGI, item `O=Cc1ccc(-c2ccc(-c3ccc(CO)s3)o2)s1`
A. > 100 µM

Q. Need TGI, item `CCOC(=O)c1ccc(-c2ccc(Cl)cc2)[nH]1`
A. > 10 µM

Q. Need TGI, item `NC(N)=N/N=C(\N=Nc1ccccc1)c1ccc(Cl)cc1`
A. 12.6 µM

Q. Need TGI, item `Cc1[nH]n(-c2nc(O)c(-c3ccccc3)c(=O)[nH]2)c(=O)c1CCO`
A. > 100 µM

Q. Need TGI, item `COc1ccc(-c2cc(Nc3ccnc(N4CCOCC4)n3)on2)cc1`
A. 18.5 µM

Q. Need TGI, item CCOC(=O)CCC(NC(=O)c1ccc(NCc2ccc3nc(-c4ccccc4)c(Cl)nc3c2)cc1)C(=O)OCC (centres undefined)
A. 90.6 µM

* * *

Item-by-item account of TGI
Tested on: NCI-H23 lung
Assay: NCI tumour cell line growth inhibition, 48 h

Below, each entry is followed by its recorded TGI result.
CC12CCC(=O)N1c1cccnc1N2 (configuration not stated)
> 100 µM
O=C1CCSCCC(=O)Nc2ccccc2N1
> 100 µM
COC(=O)C(=O)CC(=O)c1cccc(OC)c1
> 100 µM

Now for a further compound.
Q. Need TGI, item C=C1C(O)C2C(=C(C)C13CC3)C(=O)C(C)(C)C2OC (configuration not stated)
A. > 100 µM

* * *

System: MDA-MB-231 breast
Assay: NCI tumour cell line growth inhibition, 48 h
Item-by-item account of log10 TGI
In plain terms, each number is the log10 of measured TGI in µM.

NCCCN(CCCN)CCc1cn(C(=O)c2ccccc2)cn1
1.46
Clc1nc(Cl)c2ncn(Cc3ccccc3Cn3cnc4c(Cl)nc(Cl)nc43)c2n1
0.48
Oc1ccc(/C=C/c2cc(O)cc3c2C(c2cc(O)cc(O)c2)C(c2ccc(O)c(O)c2)O3)cc1 (stereo unspecified)
1.83
COc1cc2c3c(n(CCCN(C)CCO)c(=O)c2cc1OC)-c1cc2c(cc1C3=O)OCO2
1.70

Q. Need log10 TGI, item `NCCCOc1cc2ccccc2cc1C(=O)NCCCOc1cc2ccccc2cc1C(=O)Nc1ccc(Cl)cc1O`
A. 0.26

Q. Need log10 TGI, item `O=C(Nc1ccc(Cl)cc1)Nc1nccs1`
A. 1.62

* * *

Tested on: OVCAR-3 ovarian
Assay: NCI tumour cell line growth inhibition, 48 h; in the data active = GI50 below about 0.43 µM; inactive = the rest
Choose the fitting class; nothing outside true (1) (active), false (0) (inactive) is accepted.

Example cases with answers are listed next.
Oc1ccc(Oc2cnc3ccccc3n2)cc1
false (0)
O=C(CCN1CCOCC1)Nc1cccc(-n2cc(-c3ccncc3)c(-c3ccc(Cl)c(O)c3)n2)c1
false (0)
CN(C)CCNc1nc2ccccc2c2c(=O)c3cc(F)ccc3sc12
false (0)

Q. // outcome(item) with item = `C=CCn1c(SCC(=O)Nc2ccc(C(=O)/C=C/c3cc(OC)c(OC)c(OC)c3)cc2)nnc1-c1ccc(OC)cc1`
A. true (1)

Q. // outcome(item) with item = O=C1/C(=C/N2N=C(c3ccc4ccccc4c3)CC2c2ccccc2O)SC(=S)N1c1cccnc1 (stereo unspecified)
A. false (0)

Q. // outcome(item) with item = COc1cc(/C=C2\CCC/C(=C\c3ccc(OCC4CO4)c(OC)c3)C2=O)ccc1OCC1CO1 (stereo unspecified)
A. false (0)

Q. // outcome(item) with item = `Cn1cc(-c2csc(-c3cn(C)c4ccc(F)cc34)n2)c2cnccc21`
A. false (0)

Q. // outcome(item) with item = `C=C(C)[C@@H]1CC[C@]2(C)[C@H](CC[C@@H]3[C@@H]([C@@](C)(O)CCC=C(C)C)CC[C@]32C)[C@@]1(C)CCC(=O)O`
A. false (0)

Q. // outcome(item) with item = `CC(=O)[CH-]C(=O)c1ccccc1.CC(=O)[CH-]C(=O)c1ccccc1.O=S(=O)([O-])c1cc([O-])c2c([O-])cc(S(=O)(=O)[O-])cc2c1.[Na+].[Ti+4]`
A. false (0)

Q. // outcome(item) with item = `Cc1noc2c1-c1ccccc1C(c1ccc(Cl)cc1)=N[C@H]2CC(N)=O`
A. false (0)

Q. // outcome(item) with item = `c1ccc2c(c1)c1ccccc1c1ccccc21`
A. false (0)

Q. // outcome(item) with item = C=C1C(O)C2C(=C(C)C13CC3)C(=O)C(C)(C)C2OC (stereo unspecified)
A. false (0)

Q. // outcome(item) with item = `Cn1cc(S(=O)(=O)N2CCC3=Cc4c(cnn4-c4ccc(F)cc4)C[C@]3(C(=O)c3cc(C(F)(F)F)ccn3)C2)cn1`
A. false (0)

Q. // outcome(item) with item = `COc1cc2c3c(n(CCCN(C)CCO)c(=O)c2cc1OC)-c1cc2c(cc1C3=O)OCO2`
A. false (0)

Q. // outcome(item) with item = CCC[CH2][Sn]1([CH2]CCC)[O]CC(COc2c(Cl)cc(Cl)cc2Cl)[O]1 (stereo unspecified)
A. false (0)

Q. // outcome(item) with item = Cc1sc2c(c1C)C(c1ccc(Cl)cc1)=N[C@@H](CC(=O)Nc1ccc(OCCOCCOCCOCCNc3cccc4c3C(=O)N(C3CCC(=O)NC3=O)C4=O)cc1)c1nnc(C)n1-2 (stereo partly specified)
A. false (0)
